# Ki measurements, system: FAS TE (Homo sapiens)
# Sequence (P49327 2207-2511 limits assumed): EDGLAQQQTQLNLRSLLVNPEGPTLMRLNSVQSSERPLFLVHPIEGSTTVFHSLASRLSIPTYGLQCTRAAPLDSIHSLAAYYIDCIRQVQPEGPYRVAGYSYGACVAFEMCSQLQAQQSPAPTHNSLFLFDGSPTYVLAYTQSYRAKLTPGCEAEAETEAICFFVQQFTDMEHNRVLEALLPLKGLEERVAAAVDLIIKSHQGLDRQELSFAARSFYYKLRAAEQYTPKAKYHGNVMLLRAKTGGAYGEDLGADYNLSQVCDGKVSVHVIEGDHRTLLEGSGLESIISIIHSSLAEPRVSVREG
experimental.endpoint: Ki (nM)

I = CCCCCCC/C=C/CC[C@@H](C[C@@H]1OC(=O)[C@H]1CCCCCC)OC(=O)[C@H](Cc1ccccc1)NC=O
II = CCCCCCCCCCCCC[C@H](C[C@@H]1OC(=O)[C@@H]1CCCCCC)OC(=O)CNC=O
III = CCCCCCCCCCC[C@H](C[C@@H]1OC(=O)[C@H]1CC)OC(=O)CNC=O
Order the records, beginning with the lowest Ki and ending with the highest. Provide the ranking by listing each label in its place in the requested order.
II, I, III
(II: 40 nM, I: 150 nM, III: 230 nM)
